# measurement-target: IDH1 R132H (Homo sapiens, UniProt O75874, R132H)
# Sequence (O75874 whole entry R132H): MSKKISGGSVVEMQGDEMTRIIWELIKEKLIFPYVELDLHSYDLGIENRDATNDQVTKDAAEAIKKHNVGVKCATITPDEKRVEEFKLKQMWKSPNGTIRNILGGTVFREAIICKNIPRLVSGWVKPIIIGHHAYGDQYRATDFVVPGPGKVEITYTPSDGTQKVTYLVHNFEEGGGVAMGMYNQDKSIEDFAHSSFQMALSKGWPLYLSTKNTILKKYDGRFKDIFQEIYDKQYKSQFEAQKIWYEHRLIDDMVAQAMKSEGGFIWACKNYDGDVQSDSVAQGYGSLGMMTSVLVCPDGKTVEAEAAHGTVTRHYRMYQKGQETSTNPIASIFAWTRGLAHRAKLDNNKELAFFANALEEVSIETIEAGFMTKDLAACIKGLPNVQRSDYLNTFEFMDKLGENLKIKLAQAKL
# experimental-protocol: IDH1 R132H enzymatic assay (NADPH depletion coupled to diaphorase/resazurin)
# Assay type: biochemical
# recorded-conditions: enzymatic inhibition, IDH1 R132H
property: IC50

- molecule: "CC(C)=Cc1c(C(=O)N2CCNCC2)cc(-c2nc(-c3ccc(Cl)cc3)cs2)c(=O)n1-c1c(F)cccc1OC(C)C [Compound 494]"
  measurement-target: "IDH1 R132H (Homo sapiens, UniProt O75874, R132H)"
  val: "< 300 nM"
- molecule: "CCOc1ncc(Cl)cc1-n1c(C=C(C)C)c(C(=O)N2CCNCC2)cc(-c2nc(-c3ccc(C(F)F)cc3)cs2)c1=O [Compound 407]"
  measurement-target: "IDH1 R132H (Homo sapiens, UniProt O75874, R132H)"
  val: "< 300 nM"
- molecule: "Cc1conc1-n1c2c(cc(-c3nc(-c4ccc(Cl)cc4)cs3)c1=O)C(=O)CC(C)(C)C2 [Compound 472]"
  measurement-target: "IDH1 R132H (Homo sapiens, UniProt O75874, R132H)"
  val: "1000 to 5000 nM"
- molecule: "COc1cc(F)ccc1-n1c2c(cc(-c3nc(-c4ccc(Cl)cc4)cs3)c1=O)C(=O)CC(C)(C)C2 [Compound 557]"
  measurement-target: "IDH1 R132H (Homo sapiens, UniProt O75874, R132H)"
  val: "1000 to 5000 nM"
- molecule: "CCc1cccc(CC)c1-n1c(CC(C)C)c(C(=O)N2CCNCC2)cc(-c2nc(-c3ccc(Cl)cc3OC)c(C)s2)c1=O [Compound 573]"
  measurement-target: "IDH1 R132H (Homo sapiens, UniProt O75874, R132H)"
  val: "300 to 1000 nM"

Inquiry: Query (molecule): CCc1cccc(CC)c1-n1c(C=C(C)C)c(C(=O)N2CCNCC2CC)cc(-c2nc(-c3ccc(Cl)cc3)cs2)c1=O (stereo not drawn) [Compound 569] ; field requested: IC50
Reply text: < 300 nM

Inquiry: Query (molecule): COc1cccc(OC)c1-n1c(C=C(C)C)c(C(=O)N2CCNCC2)cc(-c2nc(-c3ccc(Cl)cc3)cs2)c1=O [Compound 467] ; field requested: IC50
Reply text: < 300 nM

Inquiry: Query (molecule): CCc1cccc(CC)c1-n1c(CC(C)C)c(C(=O)N2CCNCC2)cc(-c2nc(-c3ccc(Cl)cc3)c(C(=O)NC)s2)c1=O [Compound 454] ; field requested: IC50
Reply text: 300 to 1000 nM

Inquiry: Query (molecule): CCc1cccc(CC)c1-n1c(C=C(C)C)c(C(=O)N2CCNCC2C(=O)O)cc(-c2nc(-c3ccc(Cl)cc3)cs2)c1=O (stereo not drawn) [Compound 410] ; field requested: IC50
Reply text: < 300 nM

Inquiry: Query (molecule): Cc1ccc(-n2c3c(cc(-c4nc(-c5ccc(Cl)cc5)cs4)c2=O)C(=O)CCC3)c(C)c1 [Compound 450] ; field requested: IC50
Reply text: > 20000 nM

Inquiry: Query (molecule): CCc1cccc(CC)c1-n1c(CC(C)C)c(C(=O)N2CCNCC2)cc(-c2nc(-c3ccc(C(=O)N(C)C)cc3)c(C)s2)c1=O [Compound 419] ; field requested: IC50
Reply text: 1000 to 5000 nM

Inquiry: Query (molecule): CC(C)=Cc1c(C(=O)N2CCNCC2)cc(-c2nc(-c3ccc(Cl)cc3)cs2)c(=O)n1-c1ccccc1OCC(F)(F)F [Compound 589] ; field requested: IC50
Reply text: < 300 nM
